- Test system: UO-31 renal
- EXPERIMENTAL PROTOCOL: NCI tumour cell line growth inhibition, 48 h
MEASURED ATTRIBUTE: TGI

Known results for molecules:
Prompt line: Kindly indicate its recorded TGI. Item: CN(C)C=NCc1ccc2c(c1)OCO2
Response line: > 100 µM

Prompt line: Kindly indicate its recorded TGI. Item: CC(C)(C)c1cc(Oc2ccc(C#N)c(C#N)c2)cc(C(C)(C)C)c1
Response line: > 100 µM

More entries:
Prompt line: Kindly indicate its recorded TGI. Item: [CH3][Sn]([CH3])([CH3])[O]C(=O)C(O)c1ccccc1 (configuration not stated)
Response line: 31.5 µM

Prompt line: Kindly indicate its recorded TGI. Item: Cc1no[n+]([O-])c1/C=N/NS(=O)(=O)c1ccccc1
Response line: > 100 µM

Prompt line: Kindly indicate its recorded TGI. Item: Cc1ccc(-n2nnc3c(sc4ccccc43)c2=O)cc1
Response line: 7.75 µM

Prompt line: Kindly indicate its recorded TGI. Item: CC1(Br)S(=O)(=O)OCCOS1(=O)=O
Response line: > 100 µM

Prompt line: Kindly indicate its recorded TGI. Item: O=C1C=Cc2c1csc2Br
Response line: 72.5 µM

Prompt line: Kindly indicate its recorded TGI. Item: O=C(Nc1ccc(Cl)cc1Cl)c1cc2nc3ccccc3c(=O)n2c2ccccc12
Response line: > 10 µM

Prompt line: Kindly indicate its recorded TGI. Item: O=C(Cc1nc2ccc(C(=O)c3ccccc3)cc2[nH]c1=O)C(=O)Nc1ccc(C(F)(F)F)cc1[N+](=O)[O-]
Response line: > 100 µM

###

Below, each entry is listed alongside its reported TGI.
- Tested on: MDA-MB-435
- EXPERIMENTAL PROTOCOL: NCI tumour cell line growth inhibition, 48 h
Provide the reading as a plain figure in µM.

Known results for compounds:
Prompt line: Kindly indicate its recorded TGI. Item: Oc1[nH]c2ccc(Cl)cc2c1/C=c1/ccc2c(c1)N=C(c1ccc(C(F)(F)F)cc1)N=2
Response line: 4.7

Prompt line: Kindly indicate its recorded TGI. Item: S=C1NCCN1C(=S)NC1CCCCC1
Response line: 67.6

Prompt line: Kindly indicate its recorded TGI. Item: CCOC(=O)c1c(C(F)(F)F)n([O-])c2ccc(Cl)cc2[n+]1=O
Response line: 3.85

Prompt line: Kindly indicate its recorded TGI. Item: COc1ccc(C(=O)/C=C/c2ccc(OCC#N)cc2)cc1OC
Response line: 44.7

Prompt line: Kindly indicate its recorded TGI. Item: O=C1CC(NCCCNC2CC(=O)c3c(Br)sc(Br)c32)c2c(Br)sc(Br)c21 (stereo not drawn)
Response line: 4.28

More entries:
Prompt line: Kindly indicate its recorded TGI. Item: COc1ccc(/C=C/c2ccnc3ccccc23)cc1
Response line: 31.2

Prompt line: Kindly indicate its recorded TGI. Item: Cc1ccc(C2NC(=S)N3C(c4ccc(C)cc4)NC(=S)N23)cc1 (stereo not drawn)
Response line: 4.14

Prompt line: Kindly indicate its recorded TGI. Item: COc1ccc2[nH]c3c(C)c4ccnc(NCCCN(C)CCCN)c4c(C)c3c2c1
Response line: 0.401

Prompt line: Kindly indicate its recorded TGI. Item: CCOC(=O)CCC(NC(=O)c1ccc(OCc2ccc3nc(OC)c(OC)nc3c2)cc1)C(=O)OCC (stereo not drawn)
Response line: 91.1

Prompt line: Kindly indicate its recorded TGI. Item: COc1cc(-c2ccc(Nc3ccccc3C(=O)O)c(OC)c2)ccc1Nc1ccccc1C(=O)O
Response line: 46

Prompt line: Kindly indicate its recorded TGI. Item: CCN1CCN(CC(=O)Nc2nc3ccc(NCc4ccc(C)cc4)cc3s2)CC1
Response line: 2.3

Prompt line: Kindly indicate its recorded TGI. Item: Nc1ncnc2c1nc(N)n2C1OC(CO)C(O)C1O (stereo not drawn)
Response line: 0.773

###

- Tested on: NCI-H23 lung
- EXPERIMENTAL PROTOCOL: NCI tumour cell line growth inhibition, 48 h
MEASURED ATTRIBUTE: TGI

Prompt line: Kindly indicate its recorded TGI. Item: c1ccc2c(c1)ccc1nc3ccccn3c12
Response line: > 100 µM

More entries:
Prompt line: Kindly indicate its recorded TGI. Item: COc1cc2c(cc1OCc1ccccc1)N=C[C@@H]1C[C@@H](F)CN1C2=O
Response line: 0.572 µM

Prompt line: Kindly indicate its recorded TGI. Item: Cc1ccc(N(C)S(=O)(=O)c2ccccc2)cc1
Response line: > 100 µM

Prompt line: Kindly indicate its recorded TGI. Item: COc1ccccc1NC(=O)CC(=O)n1nc(-c2ccccc2)c(N=Nc2ccccc2[N+](=O)[O-])c1-c1ccccc1
Response line: > 100 µM

Prompt line: Kindly indicate its recorded TGI. Item: COc1cc(-c2nccc3[nH]c(-c4cccc5[nH]ccc45)nc23)cc(OC)c1OC
Response line: 19.1 µM

Prompt line: Kindly indicate its recorded TGI. Item: Cc1ccc(C)c(NC(=O)/C(=N\N)C(c2cnc3ccc([N+](=O)[O-])cc3n2)[N+](=O)[O-])c1 (stereo not given)
Response line: > 100 µM

Prompt line: Kindly indicate its recorded TGI. Item: Clc1ccc(/C=C/c2nc(-c3ccc(Cl)cc3)cn3c2nc2ccccc23)cc1
Response line: > 100 µM

Prompt line: Kindly indicate its recorded TGI. Item: COc1ccc(-c2nnc(Nc3nc(O)c(C4=c5cc(OC(F)(F)F)ccc5=NC4=O)s3)o2)cc1
Response line: 30.6 µM

###

- Test system: M19-MEL melanoma
- EXPERIMENTAL PROTOCOL: NCI tumour cell line growth inhibition, 48 h
MEASURED ATTRIBUTE: TGI

Known results for compounds:
Prompt line: Kindly indicate its recorded TGI. Item: C=C(C)C1Cc2c(cc(OC)c3c(=O)c4ccccc4n(C)c23)O1 (stereo not given)
Response line: > 100 µM

Prompt line: Kindly indicate its recorded TGI. Item: C=CC(Br)(CBr)CCC(Br)C(C)(C)Br (stereo not given)
Response line: 27.4 µM

Proceeding to the next compound to report its TGI.
Prompt line: Kindly indicate its recorded TGI. Item: CC(=O)n1cc(CC(C)O)c(=O)[nH]c1=O (stereo not given)
Response line: > 100 µM

###

- Test system: CCRF-CEM leukemia
*1 amine or outer side, *2 acyl side, *3 side chain or, on linkers, in order; H or OH if unused. Where a SMILES comes first, the peptide text is derived from it. Bridges are numbered along the chain shown (N, C = ends). Roman numbers before positions name the chains, in order. X23 = CCCCCCCCCCCCCCC(=O)NC(CCCCN[*:2])C(=O)CN1CCCC1C(=O)[*:1]
Respond only with the outcome that fits, drawn from 1.0 for active, 0.0 for inactive

These recorded examples may help you get a feel for the data.
Prompt line: Status in this test for O=C(CCCCCNC1=CC(=O)c2ccccc2C1=O)NCCC[Te]c1ccccc1 ?
Response line: 1.0

Prompt line: Status in this test for COc1cccc2c1C(=O)c1c(O)c3c(c(O)c1C2=O)C[C@@](O)(C(C)=O)C[C@@H]3OC1CC(N(C)C)C(O)C(C)O1 (stereo not given in full) ?
Response line: 1.0

Prompt line: Status in this test for CCOC(=O)C1=C(C)NC(C)=C(C(=O)OCC)C1c1cc(Br)c(O)c(OC)c1 ?
Response line: 0.0

Prompt line: Status in this test for COc1ccc(-c2nnc(Nc3nc(O)c(C4=c5cc(OC(F)(F)F)ccc5=NC4=O)s3)o2)cc1 ?
Response line: 0.0

Prompt line: Status in this test for CCCCCCCCCCCCCCC(=O)NC(CCCCNC(=O)C1CCCN1C(=O)C(CCCCN)NC(=O)C(CCCCN)NC(=O)C(CCCCN)NC(=O)C(CCCNC(=N)N)NC(=O)C(CCCCN)NC(=O)C(N)C(C)C)C(=O)CN1CCCC1C(=O)NCC(=O)NC(Cc1ccccc1)C(=O)N1CCCC1C(=O)NC(CO)C(=O)NC(Cc1ccc(O)cc1)C(=O)NC(CCCCN)C(=O)NC(CC(C)C)C(=O)NC(CCCNC(=N)N)C(=O)N1CCCC1C(=O)NCC(N)=O (stereo not given) (I: GFPSYKLRPG-NH2 / II: H-VKRKKKP; linker I:N-II:C via X23; configuration not given here) ?
Response line: 0.0

Prompt line: Status in this test for [CH3][Sn]([CH3])([CH3])[O]C(=O)C(O)c1ccccc1 (stereo not given) ?
Response line: 0.0

Prompt line: Status in this test for Cc1cc(NS(=O)(=O)c2ccc(NC(=O)COc3ccc(-c4cc5ccccc5[nH]4)cc3)cc2)no1 ?
Response line: 0.0

Prompt line: Status in this test for CC[C@@]1(O)C(=O)OCc2c1cc1n(c2=O)Cc2cc3c(Cl)c4c(cc3nc2-1)OCO4 ?
Response line: 1.0

Continue with the next compound.
Prompt line: Status in this test for COc1cc2c(cc1OCc1ccccc1)N=C[C@@H]1C[C@@H](F)CN1C2=O ?
Response line: 1.0

###

- Tested on: NCI/ADR-RES ovarian
- EXPERIMENTAL PROTOCOL: NCI tumour cell line growth inhibition, 48 h
MEASURED ATTRIBUTE: TGI (µM)
Provide the reading as a plain figure in µM.

Known results for compounds:
Prompt line: Kindly indicate its recorded TGI. Item: CCOC(=O)c1c(C(F)(F)F)n([O-])c2ccc(Cl)cc2[n+]1=O
Response line: 6

Prompt line: Kindly indicate its recorded TGI. Item: Cc1ccc(O)c(-c2cc(-c3ccccc3)nc(/N=C\c3ccccc3)n2)c1
Response line: 85.6

Prompt line: Kindly indicate its recorded TGI. Item: C/C(=C\CCc1ccsc1)CC/C=C(\C)CCCN1CCN(CCO)CC1
Response line: 13.5

Prompt line: Kindly indicate its recorded TGI. Item: C=C1C(=O)O[C@H]2[C@H]1CC/C(COC(=O)c1cccc3ccccc13)=C\CC[C@@]1(C)O[C@@H]21
Response line: 6.45

Prompt line: Kindly indicate its recorded TGI. Item: O=C(O)CC1C(=O)OC2C3COC(=O)c4cc(O)c(O)c(O)c4-c4c(cc(O)c(O)c4O)C(=O)OC2C(OC(=O)c2cc(O)c(O)c4c2C1C(O)C(=O)O4)C(OC(=O)c1cc(O)c(O)c(O)c1)O3 (stereo unspecified)
Response line: 46.9

Prompt line: Kindly indicate its recorded TGI. Item: CC[C@@]1(OC(=O)C(N)CCC(=O)O)C(=O)OCc2c1cc1n(c2=O)Cc2cc3ccccc3nc2-1 (stereo partly specified)
Response line: 0.297

Prompt line: Kindly indicate its recorded TGI. Item: COC(=O)c1c2c(c(C)[n+]([O-])c1C)C(=O)C=C(NCc1ccc(Br)cc1)C2=O
Response line: 3.31

Prompt line: Kindly indicate its recorded TGI. Item: [CH3][Sn]([CH3])([CH3])[O]C(=O)C(O)c1ccccc1 (stereo unspecified)
Response line: 79.5

More entries:
Prompt line: Kindly indicate its recorded TGI. Item: Cc1cc(O)c2cc3c(O)c(O)ccc3cc2c1
Response line: 5.89

Prompt line: Kindly indicate its recorded TGI. Item: N#Cc1c(N)nc2c(N=Nc3ccccc3)c(N)nn2c1Nc1ccccc1
Response line: 53.9
